- study-system: T1, recombinant human ErbB3 monomeric protein (cleaved rhErbB3) (human, UniProt P21860 20-643, limits assumed)
- T1 construct: Monomer made by protease cleavage of the Fc fusion; also called Monomeric ErbB3
- procedure-summary: SPR Biacore 37 C; supernatant antibody captured on anti-human Fc, cleaved rhErbB3 injected
Please assign label 0 whenever Kd is at or above 0.4 nM, and label 1 whenever it is below.

Inquiry: Identify whether the binder Sh24C05-45 (antibody, human IgG1, kappa, V domains shown, Humanized, human IgG1/kappa) VH: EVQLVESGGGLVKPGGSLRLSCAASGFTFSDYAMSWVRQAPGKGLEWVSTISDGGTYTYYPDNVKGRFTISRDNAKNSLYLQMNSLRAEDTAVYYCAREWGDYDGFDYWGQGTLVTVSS VL: DIQMTQSPSSLSASVGDRVTITCRASQEISGYLSWYQQKPGKAPKLLIYAASTLDSGVPSRFSGSGSGTDFTLTISSLQPEDFATYYCLQYDSYPYTFGQGTKLEIKR records Kd below 0.4 nM.
Reply text: label 0

Inquiry: Please give the result for Sh24C05-49 (antibody, human IgG1, kappa, V domains shown, Humanized, human IgG1/kappa) VH: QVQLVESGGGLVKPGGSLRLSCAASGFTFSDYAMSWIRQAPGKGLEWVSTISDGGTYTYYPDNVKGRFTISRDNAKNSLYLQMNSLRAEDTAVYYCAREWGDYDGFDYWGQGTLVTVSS VL: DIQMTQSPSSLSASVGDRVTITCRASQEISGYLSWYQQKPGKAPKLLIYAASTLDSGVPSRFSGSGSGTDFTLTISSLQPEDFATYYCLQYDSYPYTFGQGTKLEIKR too.
Reply text: label 0

Inquiry: Please give the result for Sh24C05-15 (antibody, human IgG1, kappa, V domains shown, Humanized, human IgG1/kappa) VH: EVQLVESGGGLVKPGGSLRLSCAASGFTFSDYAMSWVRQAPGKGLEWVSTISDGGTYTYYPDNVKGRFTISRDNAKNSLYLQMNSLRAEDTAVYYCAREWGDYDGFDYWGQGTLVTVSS VL: DIQMTQSPSSLSASVGDRVTITCRASQEISGYLSWLQQKPGGAIKRLIYAASTLDSGVPSRFSGSGSGSDYTLTISSLQPEDFATYYCLQYDSYPYTFGQGTKLEIKR too.
Reply text: label 1

Inquiry: Please give the result for Sh24C05-25 (antibody, human IgG1, kappa, V domains shown, Humanized, human IgG1/kappa) VH: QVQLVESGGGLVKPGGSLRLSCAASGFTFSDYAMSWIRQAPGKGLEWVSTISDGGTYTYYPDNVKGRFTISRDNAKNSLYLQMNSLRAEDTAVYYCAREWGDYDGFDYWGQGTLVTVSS VL: DIQMTQSPSSLSASVGDRVTITCRASQEISGYLSWFQQKPGKAPKSLIYAASTLDSGVPSRFSGSGSGTDFTLTISSLQPEDFATYYCLQYDSYPYTFGQGTKLEIKR too.
Reply text: label 1

Inquiry: Please give the result for Sh24C05-29 (antibody, human IgG1, kappa, V domains shown, Humanized, human IgG1/kappa) VH: QVQLVESGGGVVQPGRSLRLSCAASGFTFSDYAMSWVRQAPGKGLEWVATISDGGTYTYYPDNVKGRFTISRDNSKNTLYLQMSSLRAEDTAVYYCAREWGDYDGFDYWGQGTLVTVSS VL: DIQMTQSPSSLSASVGDRVTITCRASQEISGYLSWYQQKPGKAPKRLIYAASTLDSGVPSRFSGSGSGTEFTLTISSLQPEDFATYYCLQYDSYPYTFGQGTKLEIKR too.
Reply text: label 1

Inquiry: Please give the result for Sh24C05-27 (antibody, human IgG1, kappa, V domains shown, Humanized, human IgG1/kappa) VH: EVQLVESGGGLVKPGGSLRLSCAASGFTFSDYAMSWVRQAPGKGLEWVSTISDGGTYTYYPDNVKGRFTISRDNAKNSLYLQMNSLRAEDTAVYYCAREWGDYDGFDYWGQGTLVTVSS VL: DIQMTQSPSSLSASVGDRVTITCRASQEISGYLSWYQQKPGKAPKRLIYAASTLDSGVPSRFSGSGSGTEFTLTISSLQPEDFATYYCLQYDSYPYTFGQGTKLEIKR too.
Reply text: label 1

Inquiry: Please give the result for Sh24C05-37 (antibody, human IgG1, kappa, V domains shown, Humanized, human IgG1/kappa) VH: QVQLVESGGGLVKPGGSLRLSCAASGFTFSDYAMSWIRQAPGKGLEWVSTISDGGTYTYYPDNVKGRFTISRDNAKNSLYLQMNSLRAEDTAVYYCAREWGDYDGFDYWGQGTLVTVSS VL: DIQMTQSPSSLSASVGDRVTITCRASQEISGYLSWYQQKPGKAPKLLIYAASTLDSGVPSRFSGSGSGTDFTFTISSLQPEDIATYYCLQYDSYPYTFGQGTKLEIKR too.
Reply text: label 1

Inquiry: Please give the result for Sh24C05-41 (antibody, human IgG1, kappa, V domains shown, Humanized, human IgG1/kappa) VH: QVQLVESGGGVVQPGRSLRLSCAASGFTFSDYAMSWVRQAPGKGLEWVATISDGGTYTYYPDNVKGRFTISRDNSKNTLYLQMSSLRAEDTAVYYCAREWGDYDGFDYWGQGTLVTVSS VL: DIQLTQSPSFLSASVGDRVTITCRASQEISGYLSWYQQKPGKAPKLLIYAASTLDSGVPSRFSGSGSGTEFTLTISSLQPEDFATYYCLQYDSYPYTFGQGTKLEIKR too.
Reply text: label 0

Inquiry: Please give the result for Sh24C05-21 (antibody, human IgG1, kappa, V domains shown, Humanized, human IgG1/kappa) VH: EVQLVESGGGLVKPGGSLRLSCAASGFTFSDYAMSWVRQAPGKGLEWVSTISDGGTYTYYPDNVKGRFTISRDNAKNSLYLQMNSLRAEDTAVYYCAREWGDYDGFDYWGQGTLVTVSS VL: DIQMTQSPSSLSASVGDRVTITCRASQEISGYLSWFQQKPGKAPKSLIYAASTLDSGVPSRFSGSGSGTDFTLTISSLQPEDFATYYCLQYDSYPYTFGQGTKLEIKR too.
Reply text: label 1

Inquiry: Please give the result for Sh24C05-47 (antibody, human IgG1, kappa, V domains shown, Humanized, human IgG1/kappa) VH: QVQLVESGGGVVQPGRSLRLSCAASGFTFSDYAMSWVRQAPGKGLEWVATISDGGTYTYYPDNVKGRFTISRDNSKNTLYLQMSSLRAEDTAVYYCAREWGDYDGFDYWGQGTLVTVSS VL: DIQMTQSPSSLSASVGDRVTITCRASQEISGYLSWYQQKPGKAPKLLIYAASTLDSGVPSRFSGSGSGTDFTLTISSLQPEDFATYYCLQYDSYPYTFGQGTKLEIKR too.
Reply text: label 0

Inquiry: Please give the result for Sh24C05-17 (antibody, human IgG1, kappa, V domains shown, Humanized, human IgG1/kappa) VH: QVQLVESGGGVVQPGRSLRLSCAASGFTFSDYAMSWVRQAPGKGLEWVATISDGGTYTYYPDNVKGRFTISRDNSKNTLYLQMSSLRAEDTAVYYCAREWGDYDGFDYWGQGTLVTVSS VL: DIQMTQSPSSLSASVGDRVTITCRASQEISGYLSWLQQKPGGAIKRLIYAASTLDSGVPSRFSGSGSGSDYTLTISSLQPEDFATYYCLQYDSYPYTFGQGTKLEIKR too.
Reply text: label 1
